Documented koff across a set of binders
Target: T1, rhesus serum albumin (rhesus, UniProt Q28522 17-600)
T1 construct: also called RhSA; Rh-SA
T1 sequence (Q28522 17-600 limits assumed): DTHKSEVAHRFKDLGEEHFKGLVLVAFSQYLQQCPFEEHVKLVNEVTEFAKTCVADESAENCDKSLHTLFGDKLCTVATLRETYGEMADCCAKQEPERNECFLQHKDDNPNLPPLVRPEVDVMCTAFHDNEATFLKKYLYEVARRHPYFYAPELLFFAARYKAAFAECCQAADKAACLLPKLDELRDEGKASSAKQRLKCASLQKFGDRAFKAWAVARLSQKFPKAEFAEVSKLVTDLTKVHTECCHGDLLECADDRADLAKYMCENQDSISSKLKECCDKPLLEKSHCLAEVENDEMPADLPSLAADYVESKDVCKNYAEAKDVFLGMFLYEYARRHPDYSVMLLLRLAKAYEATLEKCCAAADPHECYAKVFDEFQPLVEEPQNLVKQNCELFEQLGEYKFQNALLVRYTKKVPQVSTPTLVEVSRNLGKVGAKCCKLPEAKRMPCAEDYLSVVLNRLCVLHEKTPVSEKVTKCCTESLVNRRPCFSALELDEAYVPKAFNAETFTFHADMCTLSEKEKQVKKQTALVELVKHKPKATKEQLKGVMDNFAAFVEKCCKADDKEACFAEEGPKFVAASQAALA
Assay: SPR, albumin immobilized;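 further: biacore SPR with human, rhesus or mouse serum albumin amine-coupled to the chip (about 1200 RU), 3 min association, 6-10 min dissociation, reference-subtracted traces fitted with a 1:1 model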

- BINDER: "PCSK9-PKE2 tandem 4472_E06 (designed binder, The real molecule is ONE polypeptide: PCSK9 domain, undisclosed linker I (a code letter), PKE2 domain. It is given here as two chains because the linker letters are unknown., also called 4427_E06; not shown: The inter-domain linker) PCSK9 domain: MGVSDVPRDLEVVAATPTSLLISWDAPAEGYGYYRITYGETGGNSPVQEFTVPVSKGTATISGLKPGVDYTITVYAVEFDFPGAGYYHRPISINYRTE PKE2 domain: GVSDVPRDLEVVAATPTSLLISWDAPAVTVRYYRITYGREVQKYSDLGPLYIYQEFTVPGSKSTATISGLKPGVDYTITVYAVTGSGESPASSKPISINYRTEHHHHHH"
  koff: "0.000415 s⁻¹"
- BINDER: "PCSK9-PKE2 tandem Adnectin w/ his tag 4472_C06 (designed binder, also called ATI-1574; ADX_4472_C06) MGVSDVPRDLEVVAATPTSLLISWDAPAEGYGYYRITYGETGGNSPVQEFTVPVSKGTATISGLKPGVDYTITVYAVEFDFPGAGYYHRPISINYRTEPSTPPTPSPSTPPTPSPSGVSDVPRDLEVVAATPTSLLISWDAPAVTVRYYRITYGREVQKYSDLGPLYIYQEFTVPGSKSTATISGLKPGVDYTITVYAVTGSGESPASSKPISINYRTEHHHHHH"
  koff: "0.000337 s⁻¹"
- BINDER: "PCSK9-PKE2 tandem 4472_F08 (designed binder, The real molecule is ONE polypeptide: PCSK9 domain, undisclosed linker F, PKE2 domain. It is given here as two chains because the linker letters are unknown., not shown: The inter-domain linker) PCSK9 domain: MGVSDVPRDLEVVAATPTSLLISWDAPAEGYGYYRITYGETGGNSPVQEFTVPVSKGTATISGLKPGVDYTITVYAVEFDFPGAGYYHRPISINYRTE PKE2 domain: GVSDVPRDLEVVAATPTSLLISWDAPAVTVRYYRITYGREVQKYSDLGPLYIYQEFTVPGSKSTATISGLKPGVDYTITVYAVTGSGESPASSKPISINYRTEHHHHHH"
  koff: "0.000367 s⁻¹"
- BINDER: "PKE2 Adnectin 2629_E06 (designed binder, 10Fn3 domain with modified CD loop; the entry includes the His6 tail; also called ADX_2629_E06) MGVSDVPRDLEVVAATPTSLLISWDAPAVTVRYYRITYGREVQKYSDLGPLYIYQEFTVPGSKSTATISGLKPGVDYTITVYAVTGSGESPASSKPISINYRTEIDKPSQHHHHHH"
  koff: "0.000283 s⁻¹"
